Please provide measured growth inhibition for the entries that follow.
- Experimental details: NCI Yeast Anticancer Drug Screen. Data for the cln2 rad14 strain (AID 165);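 further: 0% = growth equal to vehicle treated cultures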
- Test conditions: S. cerevisiae cln2 rad14 strain, at 5.0 µM (retest, dose inferred, filed as 0.5), stronger effect = higher value
Compounds without any hit were thinned out: in the full panel of roughly 79,000, 15% have a hit.
Output spec: scalar in %, unitless text.

stdin: Could you please provide reported growth inhibition for Cc1cccc(/C=N/NC(=S)N(C)CCc2ccccn2)n1 ? Thanks!
stdout: 9

stdin: Answer with reported growth inhibition of On1cnc(=S)c2[nH]cnc21
stdout: 13

stdin: Identify the reported growth inhibition for the following entry. C(=N/NC1=NCCN1)/c1c2ccccc2c(/C=N\NC2=NCCN2)c2ccccc12
stdout: 7

stdin: Tell me its growth inhibition given CCN(CC)N=Nc1c(C(N)=O)n[nH]c1C as the entry.
stdout: -55

stdin: Tell me measured growth inhibition for COc1ccc(C(C#N)=C2C=CC(=NO)C=C2)cc1 please.
stdout: 17

stdin: State its growth inhibition: Cc1ccc(Nc2c3c(c(C#N)c4nc5ccccc5n24)CCCC3)cc1
stdout: 21
